Tested on: MOLM14 F691L cells
Test: MOLM14 F691L cell viability assay (Cell Titer Glo)
Assay type: cell-based
Settings: Homo sapiens, MOLM-14; cell viability, Cell Titer Glo, 48 hours; read-out: MOLM14 F691L IC50
What IC50 was measured for each of the following?
One number for each entry, in nM.

Some solved cases for reference:
INSERT INTO assay_data (molecule, parameter, reported_result) VALUES
  ('COc1cc2ncc(-c3ccnc(N[C@H]4CNCC[C@@H]4F)n3)n2nc1[C@H]1C[C@@H](O)C1 [Compound 127a]', 'IC50', 113),
  ('COc1cc2ncc(-c3nc(N[C@H]4CNCC[C@@H]4F)ncc3F)n2nc1N1CCOCC1 [Compound 121a]', 'IC50', 20),
  ('F[C@H]1CNC[C@@H]1Nc1cncc(-c2cnc3cc(OC4CC4)c(C4CC4)nn23)n1 [Compound 14a]', 'IC50', 318),
  ('COc1cc2ncc(-c3nc(N[C@H]4CNC[C@@H]4F)ncc3F)n2nc1N1CCCS1(=O)=O [Compound 111a]', 'IC50', 113),
  ('COc1cc2ncc(-c3ccnc(N[C@@H]4CCCNC4)n3)n2nc1C1COC1 [Compound 96a]', 'IC50', 160),
  ('COc1cc2ncc(-c3ccnc(N[C@@H]4CCCNC4)n3)n2nc1C12CC(C1)C2 [Compound 90a]', 'IC50', 449),
  ('c1cc(-c2cnc3cc(OC4CC4)c(C4CC4)nn23)nc(N[C@@H]2CCCNC2)n1 [Compound 11a]', 'IC50', 80),
  ('FC(F)COc1cc2ncc(-c3cncc(N[C@H]4CNCC[C@@H]4F)n3)n2nc1C1CC1 [Compound 7a]', 'IC50', 20),
  ('COc1cc2ncc(-c3nc(N[C@@H]4CCCNC4)ncc3F)n2nc1C1CCCC1 [Compound 62a]', 'IC50', 9),
  ('COc1cc2ncc(-c3nc(N[C@@H]4CCCNC4)ncc3F)n2nc1C1CC(C)(C)C1 [Compound 56a]', 'IC50', 71);

Please give IC50, item by item, for the list that follows.
1. COc1cc2ncc(-c3nc(N[C@H]4CNCC[C@@H]4F)ncc3F)n2nc1C(C)(C)O [Compound 45a]
2. COc1cc2ncc(-c3nc(N[C@@H]4CCCNC4)ncc3F)n2nc1C12CC(C1)C2 [Compound 68a]
3. COc1cc2ncc(-c3nc(N[C@H]4CNCC[C@@H]4F)ncc3F)n2nc1C1CC(C)(C)C1 [Compound 57a]
4. COc1cc2ncc(-c3ccnc(N[C@@H]4CCCNC4)n3)n2nc1C1CCCC1 [Compound 84a]
5. COc1cc2ncc(-c3nc(N[C@H]4CNC[C@@H]4F)ncc3F)n2nc1C1CCCC1 [Compound 61a]
6. CC(C)(O)c1cn2c(-c3nc(N[C@@H]4CCCNC4)ncc3F)cnc2cn1 [Compound 99a]

1. 90
2. 20
3. 90
4. 113
5. 28
6. 1420

----------
Biological target: FLT3 (Homo sapiens)
Sequence (P36888 27-993): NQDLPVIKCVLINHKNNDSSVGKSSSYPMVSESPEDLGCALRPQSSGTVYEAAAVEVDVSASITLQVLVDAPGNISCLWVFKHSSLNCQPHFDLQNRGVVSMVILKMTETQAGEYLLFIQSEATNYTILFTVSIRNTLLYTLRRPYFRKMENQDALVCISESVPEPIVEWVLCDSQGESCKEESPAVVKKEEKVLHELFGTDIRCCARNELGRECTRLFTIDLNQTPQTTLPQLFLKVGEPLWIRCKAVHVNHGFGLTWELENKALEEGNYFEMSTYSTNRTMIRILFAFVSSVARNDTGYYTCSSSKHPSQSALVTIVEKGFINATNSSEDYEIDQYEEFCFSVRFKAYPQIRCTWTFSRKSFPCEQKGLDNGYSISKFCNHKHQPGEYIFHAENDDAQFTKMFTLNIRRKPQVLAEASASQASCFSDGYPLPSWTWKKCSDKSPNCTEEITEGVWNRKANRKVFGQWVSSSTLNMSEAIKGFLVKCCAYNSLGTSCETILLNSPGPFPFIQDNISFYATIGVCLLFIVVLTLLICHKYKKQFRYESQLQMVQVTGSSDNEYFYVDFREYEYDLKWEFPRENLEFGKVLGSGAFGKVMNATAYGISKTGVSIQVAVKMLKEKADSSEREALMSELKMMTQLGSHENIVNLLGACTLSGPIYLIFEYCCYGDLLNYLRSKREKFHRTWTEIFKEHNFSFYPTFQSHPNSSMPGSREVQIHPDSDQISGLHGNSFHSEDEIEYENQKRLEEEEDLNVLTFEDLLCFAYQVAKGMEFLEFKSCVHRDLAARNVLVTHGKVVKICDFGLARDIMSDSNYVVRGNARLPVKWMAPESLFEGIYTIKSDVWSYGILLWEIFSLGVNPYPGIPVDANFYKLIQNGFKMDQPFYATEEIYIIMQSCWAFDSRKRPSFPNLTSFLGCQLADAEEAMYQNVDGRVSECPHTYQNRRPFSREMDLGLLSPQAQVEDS
Record form. Attribute: pKd. Fill in for each entry.
Numbers only, as −log10 of the molar value.

Could you report pKd for every entry in the following list?
1. CC(C)(O)c1ccc2ncc(-c3nc(N[C@H]4CNCC[C@@H]4F)ncc3F)n2c1 [Compound 46a]
2. COc1cc2ncc(-c3nc(N[C@H]4CNCC[C@@H]4F)ncc3F)n2nc1C(C)(C)O [Compound 45a]
3. CC(C)(O)c1cn2c(-c3nc(N[C@H]4CNCC[C@@H]4F)ncc3F)cnc2cn1 [Compound 100a]

1: 8.92; 2: 8.96; 3: 7.80

----------
Target: IRAK1 (Homo sapiens)
Sequence (P51617 whole entry): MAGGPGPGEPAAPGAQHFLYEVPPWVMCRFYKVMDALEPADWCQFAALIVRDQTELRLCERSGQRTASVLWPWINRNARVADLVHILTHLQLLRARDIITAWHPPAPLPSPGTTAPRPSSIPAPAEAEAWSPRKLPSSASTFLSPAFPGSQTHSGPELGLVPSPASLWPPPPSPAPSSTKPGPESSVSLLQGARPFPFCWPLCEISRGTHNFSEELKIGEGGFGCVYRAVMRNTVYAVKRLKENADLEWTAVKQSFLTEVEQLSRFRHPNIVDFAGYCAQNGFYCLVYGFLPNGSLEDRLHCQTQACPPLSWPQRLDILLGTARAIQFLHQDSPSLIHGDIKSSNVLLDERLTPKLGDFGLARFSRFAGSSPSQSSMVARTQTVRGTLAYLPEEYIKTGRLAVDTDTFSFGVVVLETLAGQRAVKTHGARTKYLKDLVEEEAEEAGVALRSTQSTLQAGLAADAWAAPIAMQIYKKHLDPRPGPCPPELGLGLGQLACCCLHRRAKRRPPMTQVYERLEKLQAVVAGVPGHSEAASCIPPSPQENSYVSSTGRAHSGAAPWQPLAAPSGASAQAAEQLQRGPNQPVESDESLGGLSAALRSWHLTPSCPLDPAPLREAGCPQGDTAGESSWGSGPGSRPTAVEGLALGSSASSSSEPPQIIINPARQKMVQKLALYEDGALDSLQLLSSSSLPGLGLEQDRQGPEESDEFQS
Assay: RBC HotSpot Kinase Assay, IRAK1
Conditions: isolated kinase enzyme, 33P-ATP, P81 filter-binding
hey, just use yes if measured IC50 is less than 20 nM, otherwise no

Example results:
INSERT INTO results (compound, cat) VALUES
  ('F[C@H]1CCNC[C@@H]1Nc1nccc(-c2cnc3cc(OC4CC4)c(C4CC4)nn23)n1 [Compound 12a]', 'yes'),
  ('COc1cc2ncc(-c3nc(N[C@H]4CNCC[C@@H]4F)ncc3F)n2nc1C1COC1 [Compound 92a]', 'yes'),
  ('CC(C)(O)c1ccc2ncc(-c3nc(N[C@H]4CNC[C@@H]4F)ncc3F)n2c1 [Compound 47a]', 'yes');

In plain terms, does COc1cc2ncc(-c3ccnc(N[C@@H]4CCCNC4)n3)n2nc1C1COC1 [Compound 96a] come in under 20 nM for IC50?
no

Now consider CC(O)(c1ccc2ncc(-c3cncc(N[C@H]4CNC[C@@H]4F)n3)n2c1)C(F)(F)F (single isomer, unassigned) [Compound 30a] .
no

Query COc1cc2ncc(-c3nc(N[C@H]4CNC[C@@H]4F)ncc3F)n2nc1C1CCCCC1 [Compound 64a] next
yes

Then [2H]C([2H])([2H])Oc1cc2ncc(-c3ccnc(N[C@H]4CNCC[C@@H]4F)n3)n2nc1C1CC1 [Compound 128a] ?
no

----------
Molecular target: IRAK4 (Homo sapiens, UniProt Q9NWZ3)
Sequence (Q9NWZ3 whole entry): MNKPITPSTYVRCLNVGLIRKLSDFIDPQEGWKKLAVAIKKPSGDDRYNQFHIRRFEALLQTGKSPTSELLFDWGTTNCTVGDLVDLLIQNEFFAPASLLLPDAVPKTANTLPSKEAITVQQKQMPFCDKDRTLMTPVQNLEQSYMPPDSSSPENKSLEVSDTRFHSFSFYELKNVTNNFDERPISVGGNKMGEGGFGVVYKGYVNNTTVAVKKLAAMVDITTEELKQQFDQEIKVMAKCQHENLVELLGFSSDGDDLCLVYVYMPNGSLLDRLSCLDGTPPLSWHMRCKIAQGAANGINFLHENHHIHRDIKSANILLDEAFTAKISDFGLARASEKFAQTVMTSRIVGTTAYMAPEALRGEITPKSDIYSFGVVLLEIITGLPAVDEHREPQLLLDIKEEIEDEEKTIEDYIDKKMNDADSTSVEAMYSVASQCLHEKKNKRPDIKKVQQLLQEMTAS
Assay: RBC HotSpot Kinase Assay, IRAK4
Format: biochemical
Design: purchased Reaction Biology (RBC HotSpot)
Conditions: isolated kinase enzyme, 33P-ATP, P81 filter-binding
Text: This assay uses the isolated kinase enzyme. This assay is very useful for determining competition of the inhibitor for ATP and/or substrates and for measuring the kinetics of enzyme inhibition. […] Unlike kinase binding assays that measure competition for ATP, the HotSpot Kinase Assay is a functional assay that measures catalytic activity; as such it measures relative functional potency regardless of the mechanism of enzyme inhibition. […]
parameter: IC50 (nM)
Numbers only, in nM.

INSERT INTO results (compound, test_target, parameter, reported_result) VALUES
  ('CC(O)(c1ccc2ncc(-c3nc(N[C@H]4CNC[C@@H]4F)ncc3F)n2c1)C(F)(F)F (single isomer, unassigned) [Compound 38a]', 'IRAK4 (Homo sapiens, UniProt Q9NWZ3)', 'IC50', 0.6),
  ('COc1cc2ncc(-c3ccnc(N[C@@H]4CCCNC4)n3)n2nc1C1CC(C)(C)C1 [Compound 81a]', 'IRAK4 (Homo sapiens, UniProt Q9NWZ3)', 'IC50', 55),
  ('COc1cc2ncc(-c3ccnc(N[C@H]4CNCC[C@@H]4F)n3)n2nc1C1CCC1 [Compound 79a]', 'IRAK4 (Homo sapiens, UniProt Q9NWZ3)', 'IC50', 2),
  ('[2H]C([2H])([2H])Oc1cc2ncc(-c3ccnc(N[C@@H]4CCCNC4)n3)n2nc1C1CC1 [Compound 129a]', 'IRAK4 (Homo sapiens, UniProt Q9NWZ3)', 'IC50', 2),
  ('CC(O)(c1ccc2ncc(-c3nc(N[C@H]4CNCC[C@@H]4F)ncc3F)n2c1)C(F)(F)F (single isomer, unassigned) [Compound 34a]', 'IRAK4 (Homo sapiens, UniProt Q9NWZ3)', 'IC50', 2),
  ('CC(O)(c1ccc2ncc(-c3cncc(N[C@H]4CNCC[C@@H]4F)n3)n2c1)C(F)(F)F (single isomer, unassigned) [Compound 31a]', 'IRAK4 (Homo sapiens, UniProt Q9NWZ3)', 'IC50', 2);

Answer for every listed entry: what is its IC50? The entries follow.
1. COc1cc2ncc(-c3nc(N[C@H]4CNCC[C@@H]4F)ncc3F)n2nc1N1CCCC1=O [Compound 108a]
2. [2H]C([2H])([2H])Oc1cc2ncc(-c3ccnc(N[C@H]4CNCC[C@@H]4F)n3)n2nc1C1CC1 [Compound 128a]
3. COc1cc2ncc(-c3nc(N[C@H]4CNC[C@@H]4F)ncc3F)n2nc1N1CCS(=O)(=O)CC1 [Compound 123a]
4. COc1cc2ncc(-c3nc(N[C@H]4CNC[C@@H]4F)ncc3F)n2nc1C(C)(C)O [Compound 44a]
5. FC(F)COc1cc2ncc(-c3ccnc(N[C@@H]4CCCNC4)n3)n2nc1C1CC1 [Compound 6a]

1: 57; 2: 0.7; 3: 5; 4: 4; 5: 3

----------
Task for the reader: assign each of the following compounds its reported IC50.
System: MOLM14 D835Y cells
Test: MOLM14 D835Y cell viability assay (Cell Titer Glo)
Assay type: cell-based
Settings: Homo sapiens, MOLM-14, 48 h, cell viability, Cell Titer Glo, 48 hours; read-out: MOLM14 D835Y IC50
One number for each entry, in nM.

INSERT INTO assay_data (compound, parameter, unit_annotation, reported_result) VALUES
  ('COc1cc2ncc(-c3nc(N[C@H]4CNCC[C@@H]4F)ncc3F)n2nc1C1CCCC1 [Compound 63a]', 'IC50', 'nM', 2),
  ('COc1cc2ncc(-c3nc(N[C@H]4CNC[C@@H]4F)ncc3F)n2nc1C(C)(C)O [Compound 44a]', 'IC50', 'nM', 51),
  ('Fc1cnc(N[C@@H]2CCCNC2)nc1-c1cnc2cnc(C3COC3)cn12 [Compound 118a]', 'IC50', 'nM', 179);

# evaluate next
Lookup: IC50 / MOLM14 D835Y cells / CC(O)(c1ccc2ncc(-c3nc(N[C@@H]4CCCNC4)ncc3F)n2c1)C(F)(F)F (single isomer, unassigned) [Compound 37a]
32
